Where these numbers come from: ChEMBL document CHEMBL1201862

GI50 values for the molecules below.
- Test system: LXFL 529
- assay.overview: NCI tumour cell line growth inhibition, 48 h
The source made the active and inactive calls. No stated cut-off is given here; in the data, active = GI50 up to about 1.1 µM and inactive = higher.

Below, 3 molecules whose answers are already recorded.
molecule | parameter | measured.result
C/C(=N\Nc1ccccc1)C(CN(C)C)C(c1ccccc1)c1c(O)c2ccccc2oc1=O (stereo unspecified) | GI50 | > 100 µM (inactive)
COC(=O)CC(C(C(=O)OCc1ccccc1)C(C)O)N1C(=O)OCC1c1ccccc1 (stereo unspecified) | GI50 | 56.1 µM (inactive)
Cc1cccc(-n2c(N)c(-c3nc4ccccc4[nH]3)sc2=S)c1 | GI50 | 21 µM (inactive)

GI50 for LXFL 529 with input O=C(O)[C@H](NS(=O)(=O)c1ccc(F)cc1)c1ccccc1 equals > 100 µM (inactive)

GI50 for LXFL 529 with input Cc1ccc(S(=O)(=O)Nc2cccc(C)c2C)cc1 equals 56.2 µM (inactive)

GI50 for LXFL 529 with input NC(=O)c1c(-c2ccccc2)c(-c2ccccc2)cc2c(=O)c3ccccc3[nH]c12 equals 16.1 µM (inactive)

* * *

- System: DU-145
- assay.overview: NCI tumour cell line growth inhibition, 48 h
Calls of active or inactive are those of the source. No stated cut-off is given here; in the data, active = GI50 up to about 1.1 µM and inactive = higher.
parameter: GI50

compound.structure.string | parameter | measured.result
Oc1cc(-n2cccn2)c(O)cc1-n1cccn1 | GI50 | > 48.2 µM (inactive)
CN(C)CCCc1cccnc1 | GI50 | > 100 µM (inactive)
O=[N+]([O-])c1c(Br)cc(Br)c2c1Nc1c(ccc(Cl)c1Cl)S2 | GI50 | 14.1 µM (inactive)
O=C1Nc2cc(Cl)ccc2C(=O)N2CCC[C@@H]12 | GI50 | > 100 µM (inactive)
Nc1ccc(S(=O)(=O)Nc2nc3ccccc3nc2N2CCCCCC2)cc1 | GI50 | 30.9 µM (inactive)
Nc1ccc(-c2ncc3cc(-c4cccc(-c5cc6cnc(-c7ccc(N)cc7)nc6c6ccccc56)c4)c4ccccc4c3n2)cc1 | GI50 | > 100 µM (inactive)

// GI50 lookup, molecule = Cc1cc(S(=O)(=O)Nc2nc(Nc3ccc4ccccc4c3)n[nH]2)c(S)cc1Cl , result: 54.3 µM (inactive)

// GI50 lookup, molecule = Cc1nc(N)c(N2CCN(C(=O)O)CC2)c(O)n1 , result: > 100 µM (inactive)

// GI50 lookup, molecule = O=C1Nc2cccc(C(F)(F)F)c2/C1=N/Nc1ccccc1[N+](=O)[O-] , result: 33 µM (inactive)

// GI50 lookup, molecule = Cc1c(-c2cnccn2)ssc1=S , result: > 100 µM (inactive)

// GI50 lookup, molecule = O=C(NC1=C(Cl)C(=O)c2ccccc2C1=O)C(=O)c1c(O)c2ccccc2oc1=O , result: 1.49 µM (inactive)

* * *

- System: OVCAR-3
- assay.overview: NCI tumour cell line growth inhibition, 48 h
The source made the active and inactive calls. Cut-off read from the data, not from the text of the source: active = GI50 up to about 1.1 µM and inactive = higher.
Just give me one of these, please: active, inactive

compound | assigned.category
Cc1cn([C@H]2C[C@H](N=[N+]=[N-])[C@@H](CO)O2)c(=O)[nH]c1=O | inactive
C=C[Si](C)(C)COC(=O)/C(C#N)=C/C=C/c1ccccc1 | inactive
O=C(O)[C@H](NS(=O)(=O)c1ccc(F)cc1)c1ccccc1 | inactive
CC(C)=CC(=O)CC(=O)C(=O)Nc1ccc(C)c(C)c1 | inactive
O=S1(=O)OCCOS(=O)(=O)C1(F)Br | inactive

Fill in: this test's call for C=CCC1C2CCC(O[Si](C(C)C)(C(C)C)C(C)C)(C(C(=O)OC)C2)C1O (configuration not stated) is ___
inactive

Fill in: this test's call for Cc1cc(N(CCC#N)CCC#N)ccc1/C(Sc1ccccc1)=C(\NC(=O)/C=C/c1ccccc1)C(=O)Sc1ccccc1 is ___
inactive

Fill in: this test's call for CN(C)CC1(C)CC/C(=C\c2ccc(Cl)cc2)C1=O (configuration not stated) is ___
inactive

Fill in: this test's call for COc1cc2c(cc1OC)CC(=O)c1cc(OC)c(OC)cc1/C=C\2 is ___
inactive

Fill in: this test's call for COc1ccc(CCCNC(=O)Cc2ccccc2CO)cc1OC is ___
inactive

Fill in: this test's call for O=c1[nH]cnc2[nH]nnc12 is ___
inactive

Fill in: this test's call for COc1cc2c(cc1OC)C(N)CC2=O (configuration not stated) is ___
inactive

Fill in: this test's call for CNC(=O)OCc1nc([S+](C)[O-])n(C)c1COC(=O)NC (configuration not stated) is ___
inactive

Fill in: this test's call for Cc1nccn1S(=O)(=O)c1ccc(Cl)cc1 is ___
inactive

Fill in: this test's call for O=C1CC(c2ccsc2)n2cccc21 (configuration not stated) is ___
inactive

Fill in: this test's call for COC(=O)/C(=N/NC(C)(C)C)C(C(=O)OC)C(=O)C(=O)Nc1nc2ccc([N+](=O)[O-])cc2s1 (configuration not stated) is ___
inactive

Fill in: this test's call for COC(=O)/C=C(\S/C(=C(/c1ccccc1)n1cc(C(=O)OC)c(C(=O)OC)n1)c1ccccc1)C(=O)OC is ___
inactive

Fill in: this test's call for Oc1ccc(CNCc2ccccc2)c2cccnc12 is ___
active

Fill in: this test's call for CCCN(CCCCC(NC(C)=O)C(=O)NCc1ccccc1)C(=O)NC (configuration not stated) is ___
inactive

Fill in: this test's call for COc1cc2c(cc1NC(=O)c1ccccc1)c1c(n2S(=O)(=O)c2ccccc2)CCN(S(=O)(=O)c2ccccc2)C1 is ___
inactive

Fill in: this test's call for Brc1ccc2c(-c3csc(-c4c[nH]c5cc(Br)ccc45)n3)c[nH]c2c1 is ___
inactive

Fill in: this test's call for O=S1(=O)c2ccccc2N2C(c3ccccc3)=NOC2(c2ccccc2)CC1c1ccc(Br)cc1 (configuration not stated) is ___
inactive
